FYI, the data here is from paper PMC4336329.

# test_target: human ether-à-go-go-related gene (hERG) potassium channel (human);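 further: peak tail current of the secondary pulse compared with the same well before compound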
# Sequence (Q12809 whole entry, looked up): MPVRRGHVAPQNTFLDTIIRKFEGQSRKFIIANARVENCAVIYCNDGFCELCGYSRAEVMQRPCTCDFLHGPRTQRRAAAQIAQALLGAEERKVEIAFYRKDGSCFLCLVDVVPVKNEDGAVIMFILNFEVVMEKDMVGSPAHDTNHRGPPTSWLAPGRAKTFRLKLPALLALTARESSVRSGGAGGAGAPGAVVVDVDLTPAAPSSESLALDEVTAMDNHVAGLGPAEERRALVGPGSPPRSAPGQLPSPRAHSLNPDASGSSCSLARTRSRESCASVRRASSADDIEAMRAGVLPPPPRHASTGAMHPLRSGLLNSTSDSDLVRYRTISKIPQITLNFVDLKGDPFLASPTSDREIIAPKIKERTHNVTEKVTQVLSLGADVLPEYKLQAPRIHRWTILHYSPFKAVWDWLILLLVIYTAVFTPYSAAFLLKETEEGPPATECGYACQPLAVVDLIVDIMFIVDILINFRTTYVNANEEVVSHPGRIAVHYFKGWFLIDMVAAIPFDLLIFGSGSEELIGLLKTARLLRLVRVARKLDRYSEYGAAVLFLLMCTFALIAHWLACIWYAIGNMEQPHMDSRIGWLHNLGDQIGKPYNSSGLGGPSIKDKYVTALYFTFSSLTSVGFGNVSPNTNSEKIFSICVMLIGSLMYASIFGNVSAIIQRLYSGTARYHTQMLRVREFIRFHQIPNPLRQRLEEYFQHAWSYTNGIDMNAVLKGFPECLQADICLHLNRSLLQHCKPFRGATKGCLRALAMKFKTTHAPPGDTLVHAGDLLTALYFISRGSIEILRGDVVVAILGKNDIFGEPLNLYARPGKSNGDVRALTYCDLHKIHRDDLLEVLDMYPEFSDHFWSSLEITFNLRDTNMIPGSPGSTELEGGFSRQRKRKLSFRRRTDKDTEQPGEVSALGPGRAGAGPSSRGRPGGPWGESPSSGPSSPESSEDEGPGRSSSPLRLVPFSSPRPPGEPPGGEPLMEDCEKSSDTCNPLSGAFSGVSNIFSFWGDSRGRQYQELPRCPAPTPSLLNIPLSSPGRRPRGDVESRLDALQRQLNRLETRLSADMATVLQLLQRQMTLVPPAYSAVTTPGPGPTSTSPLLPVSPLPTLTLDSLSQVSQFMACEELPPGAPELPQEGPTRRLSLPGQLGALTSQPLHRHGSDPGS
# measurement_notes: primary screen, population patch clamp on CHO cells stably expressing hERG; higher = less effect of the substance
Out of some 310,000 compounds screened, about 14,000 (4.5%) showed an effect of 50% or more. Effects have a minus sign here. This excerpt belongs to a sample that is enriched for strong results.
Quick reference: hERG current change (%, negative = inhibition) at 10uM of the listed items.
Provide only the numeric value, understood in %.

Field: example entries. Status: answers known.
Cc1c(CCO)sc[n+]1CC(=O)OCCC12CC3CC(CC(C3)C1)C2.[Cl-]; 11.8
Cc1c(CCOC(=O)C23CC4CC(CC(C)(C4)C2)C3)sc[n+]1Cc1ccccc1.[Cl-]; -34.5
CCCCn1c(N)c(N(CC(C)C)C(=O)c2ccc(-c3ccc(Cl)cc3)o2)c(=O)[nH]c1=O; 1.07
Cc1c(CCOC(=O)C23CC4(C)CC(C)(CC(C)(C4)C2)C3)sc[n+]1CC(=O)c1ccccc1.[Br-]; -19.5
Cc1c(CCOC(=O)CC23CC4CC(CC(C4)C2)C3)sc[n+]1CC(=O)c1ccc(Br)cc1.[Br-]; -75.1

// sample Cc1c(CCOC(=O)CC23CC4CC(CC(C)(C4)C2)C3)sc[n+]1CC(=O)c1ccccc1.[Br-] , its hERG current change (%, negative = inhibition) at 10uM was -56.8

// sample CCOC(=O)Nc1ccc(S(=O)(=O)N2CCOCC2)cc1 , its hERG current change (%, negative = inhibition) at 10uM was 6.38

// sample Cc1c(CCOC(=O)C2C3CC4CC(C3)CC2C4)sc[n+]1CC(=O)c1ccc(Br)cc1.[Br-] (stereo not drawn) , its hERG current change (%, negative = inhibition) at 10uM was -31.4

// sample Br.C=CCn1c(C)csc1=Nc1ccccc1C , its hERG current change (%, negative = inhibition) at 10uM was 4.02

----------
# test_target: human ether-à-go-go-related gene (hERG) potassium channel (human);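 further: peak tail current of the secondary pulse compared with the same well before compound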
# measurement_notes: primary screen, population patch clamp on CHO cells stably expressing hERG; higher = less effect of the substance
Hit rate of the full screen: of about 310,000 compounds, about 14,000 (4.5%) showed an effect of 50% or more. The effect is printed as a negative number. This excerpt belongs to a sample that is enriched for strong results.
reported_property: hERG current change (%, negative = inhibition) at 10uM
Output should be the measured figure followed by the unit it is expressed in.

CCN(Cc1ccncc1)C(=O)c1cc(COc2ccc(F)cc2F)on1; -36%
COCc1ccc(C(=O)NC2CCCN(Cc3ccccc3F)C2)o1 (stereo not shown); 11.2%
O=C(CN(C(=O)c1csnn1)c1cccc2ccccc12)NC1CCCC1; -2.34%

hERG current change (%, negative = inhibition) at 10uM on human ether-à-go-go-related gene (hERG) potassium channel (human) for COc1cccc(OCc2cc(C(=O)N(C)Cc3nc4ccccc4[nH]3)no2)c1 is -37.1%

hERG current change (%, negative = inhibition) at 10uM on human ether-à-go-go-related gene (hERG) potassium channel (human) for COCc1ccc(C(=O)N(C)C2CCCN(Cc3ccccc3F)C2)o1 (stereo not shown) is 0.722%

hERG current change (%, negative = inhibition) at 10uM on human ether-à-go-go-related gene (hERG) potassium channel (human) for CCN(Cc1ccncc1)C(=O)c1ccc(Br)o1 is 1.66%

hERG current change (%, negative = inhibition) at 10uM on human ether-à-go-go-related gene (hERG) potassium channel (human) for CCN(Cc1ccncc1)C(=O)c1cc(COc2ccc(C)c(C)c2)on1 is -69.5%

hERG current change (%, negative = inhibition) at 10uM on human ether-à-go-go-related gene (hERG) potassium channel (human) for CC(NC(=O)COc1ccccc1)C(c1cccs1)N1CCCC1 (stereo not shown) is -2.64%

hERG current change (%, negative = inhibition) at 10uM on human ether-à-go-go-related gene (hERG) potassium channel (human) for COCc1ccc(C(=O)N(C)CC2CCCN(CCc3ccc(OC)cc3)C2)o1 (stereo not shown) is -69.5%

hERG current change (%, negative = inhibition) at 10uM on human ether-à-go-go-related gene (hERG) potassium channel (human) for CCN(Cc1ccncc1)C(=O)c1cc(COc2c(C)cccc2C)on1 is -75.3%
